- TEST PROTOCOL: Tmax in mouse plasma at 1.25 mg/kg, ip measured up to 480 mins by LC/ESI-MS/MS analysis
- Format: ADME, organism-based
VALUE KIND: Tmax (min)
Report the value in min with no unit label.

IN: State the recorded Tmax for this entry: COc1cccc(N2CCN(CC3CCN(c4ncnc5cc(OC)c(OC)cc45)C3)CC2)c1 (stereo unspecified)
OUT: 5

----------
- TESTED TARGET: 5-hydroxytryptamine receptor 1A (Homo sapiens, UniProt P08908)
- TEST PROTOCOL: Agonist activity at human 5-HT1A receptor expressed in CHO-K1 cells assessed as stimulation of ERK1/2 phosphorylation incubated for 15 mins by Alpha LISA assay
- Type: functional, cell-based
VALUE KIND: pEC50
Formally, pEC50 is defined as -log10 of the concentration c, with c in mol/L.

IN: Find the recorded pEC50 belonging to COc1cc2ncnc(N3CCC(CN4CCN(c5ccc(Cl)cc5)CC4)C3)c2cc1OC (stereo unspecified) and report it.
OUT: 5.32

----------
// endpoint pIC50 / system UniProt Q9Y233
Sequence (Q9Y233 whole entry): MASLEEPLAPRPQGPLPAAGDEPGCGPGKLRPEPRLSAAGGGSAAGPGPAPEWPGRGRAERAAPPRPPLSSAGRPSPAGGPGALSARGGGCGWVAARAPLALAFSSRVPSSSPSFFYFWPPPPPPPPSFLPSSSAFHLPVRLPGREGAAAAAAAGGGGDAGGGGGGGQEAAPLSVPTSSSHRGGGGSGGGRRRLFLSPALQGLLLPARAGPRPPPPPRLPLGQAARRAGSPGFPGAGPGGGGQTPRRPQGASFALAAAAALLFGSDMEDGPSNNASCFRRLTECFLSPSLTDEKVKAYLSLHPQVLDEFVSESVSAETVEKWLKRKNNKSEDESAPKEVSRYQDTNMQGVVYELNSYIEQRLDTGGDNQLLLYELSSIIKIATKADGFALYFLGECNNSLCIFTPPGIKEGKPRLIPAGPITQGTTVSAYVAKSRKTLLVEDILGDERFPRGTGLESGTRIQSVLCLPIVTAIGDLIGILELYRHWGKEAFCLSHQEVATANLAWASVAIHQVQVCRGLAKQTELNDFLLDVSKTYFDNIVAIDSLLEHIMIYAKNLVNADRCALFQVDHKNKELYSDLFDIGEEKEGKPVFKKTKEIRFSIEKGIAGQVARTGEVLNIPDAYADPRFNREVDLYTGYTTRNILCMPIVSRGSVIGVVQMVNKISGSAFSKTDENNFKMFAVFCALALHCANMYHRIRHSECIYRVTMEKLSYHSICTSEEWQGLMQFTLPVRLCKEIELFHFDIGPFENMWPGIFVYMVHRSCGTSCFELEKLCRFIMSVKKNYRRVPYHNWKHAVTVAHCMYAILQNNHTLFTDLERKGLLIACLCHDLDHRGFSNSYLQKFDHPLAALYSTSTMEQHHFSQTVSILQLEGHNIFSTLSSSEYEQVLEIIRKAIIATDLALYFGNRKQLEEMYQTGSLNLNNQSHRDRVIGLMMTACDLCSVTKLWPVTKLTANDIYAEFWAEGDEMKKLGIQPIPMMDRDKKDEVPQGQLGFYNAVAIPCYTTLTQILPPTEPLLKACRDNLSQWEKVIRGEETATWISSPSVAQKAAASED
# pIC50: negative log10 of molar concentration; output just the value

Example results:
1. COc1cc2ncnc(N3CCC(CN4CCN(c5ccc(Cl)cc5)CC4)C3)c2cc1OC (stereo unspecified)	5.77
2. COc1cc2ncnc(N3CCC(CN4CCN(c5ccccc5O)CC4)C3)c2cc1OC (stereo unspecified)	5.22
3. COc1cc2ncnc(N3CCC(CN4CCc5ccccc5C4)C3)c2cc1OC (stereo unspecified)	3.98

IN: Request body: readout pIC50, system UniProt Q9Y233, query COc1cccc(N2CCN(CC3CCN(c4ncnc5cc(OC)c(OC)cc45)C3)CC2)c1 (stereo unspecified) . Return the value.
OUT: 5.15

IN: Hi! What's the reported pIC50 for O=c1[nH]c2cccc(N3CCN(Cc4nc5ccccc5[nH]4)CC3)c2[nH]1 on UniProt Q9Y233?
OUT: 5.39

IN: # value lookup — system UniProt Q9Y233, readout pIC50, item COc1cc2ncnc(N3CCN(Cc4cnc5ccccc5n4)CC3)c2cc1OC
OUT: 3.77

----------
- TESTED TARGET: 5-hydroxytryptamine receptor 1A (Homo sapiens, UniProt P08908)
- TEST PROTOCOL: Agonist activity at human 5-HT1A receptor expressed in U2OS cells assessed as beta-arrestin recruitment incubated for 5 hrs by Tango assay
- Assay type: functional, cell-based
VALUE KIND: pEC50
Value format note: pEC50 is -log10 of concentration (mol/L); just state the number.

IN: Give the reported pEC50 for COc1cc2ncnc(N3CCC(CN4CCN(c5ccc(Cl)cc5)CC4)C3)c2cc1OC (stereo unspecified) (system: 5-hydroxytryptamine receptor 1A (Homo sapiens, UniProt P08908)).
OUT: 4.92

----------
- TEST PROTOCOL: AUC(0 to t) in mouse striatum at 1.25 mg/kg, ip by LC/ESI-MS/MS analysis
- Assay type: ADME, organism-based
- Set-up: dose 1.25 mg/kg, route ip
VALUE KIND: AUC(0-t) (ng·h/mL)
Your answer is read as ng·h/mL, so omit the unit and give the number.

IN: Could you tell me which AUC(0-t) is on file for COc1cccc(N2CCN(CC3CCN(c4ncnc5cc(OC)c(OC)cc45)C3)CC2)c1 (stereo unspecified) ?
OUT: 438

----------
- TEST PROTOCOL: AUC(0 to t) in mouse hippocampus at 0.625 mg/kg, ip by LC/ESI-MS/MS analysis
- Type: ADME, organism-based
- Parameters: dose 0.625 mg/kg, route ip
VALUE KIND: AUC(0-t) (ng·h/mL)
Reply with just the number (in ng·h/mL).

IN: Could you share which AUC(0-t) value was measured for COc1cc2ncnc(N3CCC(CN4CCN(c5ccc(Cl)cc5)CC4)C3)c2cc1OC (stereo unspecified) ?
OUT: 1040

----------
- TEST PROTOCOL: Ratio of drug concentration in Hippocampus to plasma in mouse at 0.625 mg/kg, ip by LC/ESI-MS/MS analysis
- Format: ADME, organism-based
- CONDITION INFO: hippocampus and plasma
VALUE KIND: Kp
Field format: numeric only.

IN: Requested field: Kp. Item: COc1cc2ncnc(N3CCC(CN4CCN(c5ccc(Cl)cc5)CC4)C3)c2cc1OC (stereo unspecified)
OUT: 85.4

----------
- TEST PROTOCOL: Metabolic stability in human liver microsomes assessed as half life
VALUE KIND: half-life (min)
Note: unit min is implicit; provide only the numeric part.

IN: Recorded half-life of COc1cc2ncnc(N3CCC(CN4CCN(c5ccc(Cl)cc5)CC4)C3)c2cc1OC (stereo unspecified) , please.
OUT: 49

----------
- TEST PROTOCOL: Plasma protein binding in human by LC-MS/MS analysis
- Type: ADME, cell-free
- CONDITION INFO: read-out: PPB (converted)
VALUE KIND: fraction unbound
Number, no unit, nothing else.

IN: // query fraction unbound value for entry COc1cc2ncnc(N3CCC(CN4CCN(c5ccc(Cl)cc5)CC4)C3)c2cc1OC (stereo unspecified)
OUT: 0.018

----------
- TEST PROTOCOL: Permeability of the compound across apical to basolateral side in human Caco-2 cells at pH 7.4
- Assay type: ADME, cell-based
- CONDITION INFO: Caco-2, pH 7.4, read-out: Papp
VALUE KIND: Papp A→B (×10⁻⁶ cm/s)
Give your result in ×10⁻⁶ cm/s as a bare value.

IN: For the compound COc1cc2ncnc(N3CCC(CN4CCN(c5ccc(Cl)cc5)CC4)C3)c2cc1OC (stereo unspecified) , what Papp A→B is on record?
OUT: 0.05

----------
Each item that follows carries a reported pKi.
- TESTED TARGET: 5-hydroxytryptamine receptor 1A (Homo sapiens)
- Sequence (P08908 whole entry): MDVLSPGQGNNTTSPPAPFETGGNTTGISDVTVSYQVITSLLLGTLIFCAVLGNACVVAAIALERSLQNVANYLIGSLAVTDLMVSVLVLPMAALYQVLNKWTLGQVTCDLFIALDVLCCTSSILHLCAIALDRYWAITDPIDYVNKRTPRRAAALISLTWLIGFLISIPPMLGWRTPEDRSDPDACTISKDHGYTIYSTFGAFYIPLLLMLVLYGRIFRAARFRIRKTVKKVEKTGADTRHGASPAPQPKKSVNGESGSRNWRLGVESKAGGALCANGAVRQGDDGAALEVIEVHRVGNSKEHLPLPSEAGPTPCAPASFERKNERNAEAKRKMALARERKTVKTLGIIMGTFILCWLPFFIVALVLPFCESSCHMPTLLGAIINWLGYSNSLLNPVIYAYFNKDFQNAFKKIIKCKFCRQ
pKi: −log10 of the molar value.

1. COc1cc2ncnc(N3CCN(Cc4ccc5ccccc5n4)CC3)c2cc1OC	< 6.00
2. c1ccc2nc(CN3CCN(c4cccc5cn[nH]c45)CC3)ccc2c1	< 6.00
3. COc1cc2ncnc(N3CCC(CN4CCN(c5ccc(Cl)c(Cl)c5)CC4)C3)c2cc1OC (configuration not stated)	6.61
4. COc1cc2ncnc(N3CCC(CN4CCN(c5ccccc5OC)CC4)C3)c2cc1OC (configuration not stated)	8.79
5. COc1cc2ncnc(N3CCN(Cc4cnc5ccccc5n4)CC3)c2cc1OC	< 6.00
6. COc1cc2ncnc(N3CCC(CN4CCc5ccccc5C4)C3)c2cc1OC (configuration not stated)	< 6.00

IN: What does the data say about its pKi? Entry: COc1cc2ncnc(N3CCC(CN4CCN(c5ccc(Cl)cc5)CC4)C3)c2cc1OC (configuration not stated)
OUT: 6.44

IN: # get_value(readout='pKi', item= c1cc(N2CCN(c3cccc4cn[nH]c34)CC2)c2ncncc2c1 )
OUT: < 6.00

IN: Reported pKi for c1cc(N2CCN(Cc3nc4ccccc4[nH]3)CC2)c2[nH]ncc2c1 : what is it?
OUT: < 6.00

IN: Quick check: pKi of O=c1[nH]c2cccc(N3CCN(Cc4nc5ccccc5[nH]4)CC3)c2[nH]1 ?
OUT: < 6.00

IN: Value lookup for pKi; key = COc1cc2ncnc(N3CCC(CN4CCN(c5ccccn5)CC4)C3)c2cc1OC (configuration not stated)
OUT: 8.09

IN: Please look up its pKi: COc1cc2ncnc(N3CCN(Cc4nc5ccccc5[nH]4)CC3)c2cc1OC
OUT: < 6.00

----------
- TEST PROTOCOL: Apparent volume of distribution in mouse plasma at 1.25 mg/kg, ip measured up to 480 mins by LC/ESI-MS/MS analysis
- Format: ADME, organism-based
VALUE KIND: Vd/F (L/kg)
Dear colleague, please return just the value in L/kg, with no unit written.

IN: If you can, please state the reported Vd/F value of COc1cccc(N2CCN(CC3CCN(c4ncnc5cc(OC)c(OC)cc45)C3)CC2)c1 (stereo unspecified) .
OUT: 0.253

----------
- TEST PROTOCOL: Cmax in mouse frontal cortex at 1.25 mg/kg, ip by LC/ESI-MS/MS analysis
- Assay type: ADME, organism-based
- Parameters: dose 1.25 mg/kg, route ip
VALUE KIND: Cmax (ng/mL)
Entry rule: numbers only, all in ng/mL.

IN: Find the recorded Cmax belonging to COc1cccc(N2CCN(CC3CCN(c4ncnc5cc(OC)c(OC)cc45)C3)CC2)c1 (stereo unspecified) and report it.
OUT: 210
